Test system: MDA-MB-435
Assay: NCI tumour cell line growth inhibition, 48 h
observation type: TGI

Here are 2 molecules together with their reported answers.
>>> measured_value("O=C(O)c1nc2ccc(C(F)(F)F)cc2nc1NCc1ccc(Cl)c(Cl)c1")
"30 µM"
>>> measured_value("CC(C)(C)OC(=O)NC(Cc1ccc(O)cn1)C(=O)O (centres undefined)")
"> 100 µM"

Exercise: So what's the measured TGI for this one? COC(=O)C(C)(C)[C@@H]1OC(=O)N(S(=O)(=O)c2c(C)cc(C)cc2C)[C@H]1C(C)C
Solution: > 100 µM

Exercise: So what's the measured TGI for this one? CC(=NNC(=S)Nc1cccc(C)c1)c1cccc(C(C)=NNC(=S)Nc2cccc(C)c2)n1
Solution: > 100 µM

Exercise: So what's the measured TGI for this one? COc1ccc2nc3c([N+](=O)[O-])ccc(NCCCN(C)C)c3c(NCCCN(C)C)c2c1
Solution: > 10 µM

Exercise: So what's the measured TGI for this one? COc1ccc2cc(C(=O)/C=C/c3ccc(N(C)C)cc3)ccc2c1
Solution: > 100 µM

Exercise: So what's the measured TGI for this one? CCN1C(=O)N(CC)C2C1NN=c1s/c(=C\c3ccco3)c(=O)n12 (centres undefined)
Solution: 0.58 µM

Exercise: So what's the measured TGI for this one? CCc1nc(N)nc(N)c1-c1ccc2nnn(O)c2c1
Solution: > 100 µM

Exercise: So what's the measured TGI for this one? N/C(=N/N=C/c1ccccc1)N/N=C\c1ccccc1
Solution: 6.61 µM

----------
We begin with a simple list: items and their reported TGI.
System: PC-3 prostate
Assay: NCI tumour cell line growth inhibition, 48 h

Here are 2 molecules together with their reported answers.
>>> measured_value("N#C[Se]CCN1C(=O)C2C(C1=O)[C@H]1C=C[C@@H]2S1 (stereo not given in full)")
"5.9 µM"
>>> measured_value("COC(=O)C1=COC(C)C2CN3CCc4c([nH]c5cc(OC)c(OC)cc45)C3CC12 (stereo not given)")
"> 100 µM"

Exercise: So what's the measured TGI for this one? CCOC(=O)c1cc2c3c(c(C(C)=O)c(O)c2[nH]1)N(C(C)=O)CC3
Solution: > 100 µM

Exercise: So what's the measured TGI for this one? c1ccc(C(NC2=NCCO2)c2ccccc2)cc1
Solution: > 10 µM

Exercise: So what's the measured TGI for this one? NNC(=O)CCSc1ccccc1
Solution: > 100 µM

Exercise: So what's the measured TGI for this one? COc1cc2c(c(OC)c1OC)-c1ccc(OC)c(=O)cc1[C@@H](NC(C)=O)CC2
Solution: > 100 µM

Exercise: So what's the measured TGI for this one? Cc1ccc(C(=O)Cn2c(C(=O)/C=C/c3cccs3)nc3ccccc32)cc1
Solution: > 100 µM

----------
We begin with a simple list: items and their reported TGI.
Tested on: U251 CNS
Experiment: NCI tumour cell line growth inhibition, 48 h

Here are 4 molecules together with their reported answers.
>>> measured_value("Cc1cc(C)c(O)c(CN2CCN(C(C)C)CCN(C(C)C)CC2)c1")
"> 100 µM"
>>> measured_value("COc1ccc2cc(C(=O)/C=C/c3ccc(N(C)C)cc3)ccc2c1")
"> 100 µM"
>>> measured_value("COC(=O)[C@H](Cc1c[nH]c2ccccc12)NP(=O)(O)OC[C@H]1O[C@@H](n2cc(C)c(=O)[nH]c2=O)C[C@@H]1N=[N+]=[N-]")
"> 100 µM"
>>> measured_value("O=C(c1ccccc1)C(c1ccccc1)C1(O)C(=O)Nc2ccc([N+](=O)[O-])cc21 (stereo unspecified)")
"> 100 µM"

Exercise: So what's the measured TGI for this one? N#Cc1c(N2CCOCC2)nc(=S)[nH]c1-c1ccccc1
Solution: > 100 µM

----------
System: SF-295 CNS
Test: NCI tumour cell line growth inhibition, 48 h
observation type: TGI

Here are 2 compounds together with their reported answers.
>>> measured_value("Cn1ccc(C(=O)NCCN(CCNC(=O)c2ccn(C)c(=O)c2O)CCNC(=O)c2ccn(C)c(=O)c2O)c(O)c1=O")
"> 100 µM"
>>> measured_value("CC(C)C(=O)CC(c1ccc(Cl)cc1)N1N=C(C(C)C)CC1c1ccc(Cl)cc1 (stereo not drawn)")
"> 31.6 µM"

Please look at the following compound next.
Exercise: GET /values?readout=TGI&system=SF-295 CNS&item= CC1(C)C2CC(O)C1CCC2=O (stereo not drawn)
Solution: > 100 µM

----------
Tested on: NCI-H226 lung
Experiment: NCI tumour cell line growth inhibition, 48 h
observation type: TGI

>>> measured_value("COC(=O)C1=CO[C@@H](OC2OC(CO)C(O)C(O)C2O)[C@H]2[C@@H](C)[C@@H](O)[C@@H](O)[C@@H]12 (stereo partly drawn)")
"> 100 µM"
>>> measured_value("COc1cc(C(=O)N2CCN(c3ccccc3)CC2)c2ccccc2n1")
"> 100 µM"

Exercise: So what's the measured TGI for this one? Cn1c(=O)c2c(nc3sc4c(n32)C(=O)c2c(O)ccc(O)c2C4=O)n(C)c1=O
Solution: > 100 µM

----------
Test system: NCI-H460 lung
Experiment: NCI tumour cell line growth inhibition, 48 h
observation type: TGI

>>> measured_value("CC(C)(C)[Si](C)(C)OCC1OC(n2cc(I)c(=O)[nH]c2=O)C(O[Si](C)(C)C(C)(C)C)C1O[Si](C)(C)C(C)(C)C (configuration not stated)")
"36.8 µM"

Exercise: So what's the measured TGI for this one? Cc1cc(C)n(-c2ccnc3cc(Cl)ccc23)n1
Solution: > 100 µM

Exercise: So what's the measured TGI for this one? CN(C)CCCSc1nc2c(c(=N)n1-c1ccccc1)c(=S)n(-c1ccccc1)c(=S)n2-c1ccccc1
Solution: 3.24 µM

Exercise: So what's the measured TGI for this one? COc1ccc2cc(C(=O)/C=C/c3ccc(N(C)C)cc3)ccc2c1
Solution: > 100 µM

Exercise: So what's the measured TGI for this one? CN(C)CCCNC(=O)CCNC(=O)c1cc(NC(=O)c2cc(NC(=O)c3cc(NC(=O)c4nccn4C)cn3C)cn2C)cn1C
Solution: > 100 µM

Exercise: So what's the measured TGI for this one? Cc1[nH]c(=O)[nH]c(=O)c1/C=C/C(=O)NC(CO)CS(=O)Cc1ccccc1 (configuration not stated)
Solution: > 300 µM

Exercise: So what's the measured TGI for this one? CCOC(=O)c1cc(C(=O)c2cc(OC)c(OC)c(OC)c2)n2c1ccc1ccccc12
Solution: > 100 µM

----------
System: MDA-MB-231 breast
Test: NCI tumour cell line growth inhibition, 48 h
observation type: GI50

>>> measured_value("N=C(N)SCc1c2ccccc2c(CSC(=N)N)c2ccccc12")
"12 µM"
>>> measured_value("CN1CCC2(CC1)NC(=O)c1c(c3ccc(Cl)c(Cl)c3n1C)C2C#N (stereo unspecified)")
"5.19 µM"
>>> measured_value("O=C([O][Hg][CH2]C1OCCOC1[CH2][Hg][O]C(=O)c1ccccc1)c1ccccc1 (stereo unspecified)")
"16.3 µM"
>>> measured_value("O=[N+]([O-])c1ccc(C2CC(c3ccccc3)=Nc3ccccc3S2)cc1 (stereo unspecified)")
"> 100 µM"
>>> measured_value("COc1ccc2c(c1)oc(=O)c1cc(OC)ccc12")
"> 100 µM"

Please look at the following compound next.
Exercise: So what's the measured GI50 for this one? COCCNc1ccc2c3c(cccc13)C(=O)N(CCN(C)C)C2=O
Solution: 12.9 µM

----------
We begin with a simple list: items and their reported TGI.
Test system: HL-60(TB) leukemia
Assay: NCI tumour cell line growth inhibition, 48 h
Where a SMILES comes first, the peptide text is derived from it. [ ]: non-standard residue; d: D form. Phe(4-NO2) = N[CH](Cc1ccc([N+](=O)[O-])cc1)C(=O)O

>>> measured_value("CC(C)(C)[Si](C)(C)OC1[C@@H](O[Si](C)(C)C(C)(C)C)[C@@H](CNC(=O)NC(=O)CF)O[C@H]1n1cnc2c(NC(=O)Nc3ccccc3)ncnc21 (stereo not given in full)")
"> 50 µM"
>>> measured_value("C/C=C1\\CC2C(=O)CCC2C2c3ccccc3OC12 (stereo not given)")
"> 100 µM"
>>> measured_value("CNC(=O)NCCN1CC2CCC(CC2)C1")
"> 10 µM"

Exercise: So what's the measured TGI for this one? CC(NC(=O)C(Cc1ccc([N+](=O)[O-])cc1)NC(=O)C(N)CCCCN)C(=O)NC(Cc1ccc([N+](=O)[O-])cc1)C(N)=O (stereo not given) (H-K[Phe(4-NO2)]A[Phe(4-NO2)]-NH2; configuration not given here)
Solution: > 48.9 µM

Exercise: So what's the measured TGI for this one? O=C(O)CCc1nc2ccccc2[nH]1
Solution: > 100 µM
